# assay system: drHDAC10 (Danio rerio, UniProt F1QCV2)
# Sequence (F1QCV2 1-675): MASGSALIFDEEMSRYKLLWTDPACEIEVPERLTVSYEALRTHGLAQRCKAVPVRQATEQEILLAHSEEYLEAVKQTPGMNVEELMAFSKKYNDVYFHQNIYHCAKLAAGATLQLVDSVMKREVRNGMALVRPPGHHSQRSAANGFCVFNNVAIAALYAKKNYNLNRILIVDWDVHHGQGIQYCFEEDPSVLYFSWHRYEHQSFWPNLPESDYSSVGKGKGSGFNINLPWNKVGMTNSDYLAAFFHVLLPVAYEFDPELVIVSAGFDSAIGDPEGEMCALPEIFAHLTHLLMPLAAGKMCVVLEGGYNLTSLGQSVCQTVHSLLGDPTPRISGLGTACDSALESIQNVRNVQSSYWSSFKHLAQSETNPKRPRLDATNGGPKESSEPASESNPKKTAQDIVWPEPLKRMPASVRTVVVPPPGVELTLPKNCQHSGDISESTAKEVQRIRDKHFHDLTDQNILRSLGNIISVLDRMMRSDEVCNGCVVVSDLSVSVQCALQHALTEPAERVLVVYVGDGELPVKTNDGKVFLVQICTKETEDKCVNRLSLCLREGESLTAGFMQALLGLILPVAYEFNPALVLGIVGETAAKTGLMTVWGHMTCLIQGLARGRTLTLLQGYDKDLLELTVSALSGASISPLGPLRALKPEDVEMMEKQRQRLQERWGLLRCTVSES
# measurement notes: Enzymatic in vitro HDAC10 inhibition assay
# Format: biochemical, zebrafish
# condition details: read-out: IC50 drHDAC10 ± SD; zebrafish HDAC10, recombinant wild type
readout kind: IC50 (nM)

I: Cc1ccc(S(=O)(=O)n2cc(CNCc3ccc(C(=O)NO)cc3)c3ccccc32)cc1 [Compound 2c]
II: O=C(NO)c1ccc(N2CCN(Cc3cnc4ccccc4c3)CC2)cc1 [Compound 2g]
# compare IC50 for I vs II ; return the one with the smaller value Give the label of your selection. I
(I: 4.5 nM, II: 11 nM)

====

# assay system: hHDAC6 (Homo sapiens, UniProt Q9UBN7)
# Sequence (Q9UBN7 whole entry): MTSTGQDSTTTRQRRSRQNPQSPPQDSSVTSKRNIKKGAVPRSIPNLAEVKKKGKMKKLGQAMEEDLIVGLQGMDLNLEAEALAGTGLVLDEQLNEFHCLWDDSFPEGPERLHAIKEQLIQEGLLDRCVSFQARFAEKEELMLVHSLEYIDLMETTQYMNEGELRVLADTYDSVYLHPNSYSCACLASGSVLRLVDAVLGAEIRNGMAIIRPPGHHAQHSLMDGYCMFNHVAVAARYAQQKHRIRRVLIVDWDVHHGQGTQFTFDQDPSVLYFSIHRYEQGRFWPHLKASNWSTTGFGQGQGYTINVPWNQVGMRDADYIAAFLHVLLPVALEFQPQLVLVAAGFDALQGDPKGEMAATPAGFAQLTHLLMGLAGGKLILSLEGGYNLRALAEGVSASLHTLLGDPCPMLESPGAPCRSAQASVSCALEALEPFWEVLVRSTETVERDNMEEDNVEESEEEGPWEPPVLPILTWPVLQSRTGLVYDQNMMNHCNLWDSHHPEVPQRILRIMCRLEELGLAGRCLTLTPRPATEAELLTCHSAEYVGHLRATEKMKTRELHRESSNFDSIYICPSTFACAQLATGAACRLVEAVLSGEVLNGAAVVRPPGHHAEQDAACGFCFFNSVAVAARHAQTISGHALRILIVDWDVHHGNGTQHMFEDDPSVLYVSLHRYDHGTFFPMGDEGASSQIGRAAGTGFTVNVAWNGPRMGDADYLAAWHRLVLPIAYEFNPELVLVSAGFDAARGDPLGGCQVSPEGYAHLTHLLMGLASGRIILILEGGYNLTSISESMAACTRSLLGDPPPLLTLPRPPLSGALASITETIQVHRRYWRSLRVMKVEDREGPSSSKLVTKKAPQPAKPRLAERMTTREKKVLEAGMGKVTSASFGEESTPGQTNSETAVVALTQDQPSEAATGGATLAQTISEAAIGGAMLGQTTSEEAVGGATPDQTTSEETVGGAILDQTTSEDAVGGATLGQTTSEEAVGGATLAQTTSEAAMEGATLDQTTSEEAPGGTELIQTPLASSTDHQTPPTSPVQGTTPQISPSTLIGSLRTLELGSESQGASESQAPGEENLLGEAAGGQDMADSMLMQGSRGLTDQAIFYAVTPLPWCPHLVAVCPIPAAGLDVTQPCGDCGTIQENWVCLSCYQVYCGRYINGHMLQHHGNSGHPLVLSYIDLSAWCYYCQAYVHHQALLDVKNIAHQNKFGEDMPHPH
# measurement notes: biochemical
pIC50: −log10 of the molar value.
readout kind: pIC50

O=C(NO)c1ccc(N2CCN(Cc3c[nH]c4ccccc34)CC2)cc1 [Compound 2b] = 7.14
O=C(NO)c1ccc(CNCc2c[nH]c3ccccc23)cc1 [Compound 2a] = 7.43

A: Cc1ccc(S(=O)(=O)n2cc(CNc3ccc(C(=O)NO)cc3)c3ccccc32)cc1 [Compound 2d]
B: O=C(NO)c1ccc(NCc2cnc3ccccc3c2)cc1 [Compound 2f]
# compare pIC50 for A vs B ; return the one with the smaller value Give the label of your selection. A
(A: 7.28, B: 8.60)

====

# assay system: hHDAC8 (Homo sapiens, UniProt Q9BY41)
# Sequence (Q9BY41 whole entry): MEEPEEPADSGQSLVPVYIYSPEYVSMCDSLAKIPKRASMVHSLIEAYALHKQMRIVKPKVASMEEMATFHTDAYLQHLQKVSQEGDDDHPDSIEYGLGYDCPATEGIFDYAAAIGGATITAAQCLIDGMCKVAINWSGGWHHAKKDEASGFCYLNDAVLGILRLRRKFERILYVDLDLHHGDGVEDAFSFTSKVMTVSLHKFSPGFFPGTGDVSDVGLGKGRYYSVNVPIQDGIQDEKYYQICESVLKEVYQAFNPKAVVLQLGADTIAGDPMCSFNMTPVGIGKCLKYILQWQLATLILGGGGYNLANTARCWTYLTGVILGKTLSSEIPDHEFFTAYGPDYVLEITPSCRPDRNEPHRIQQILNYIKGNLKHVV
# measurement notes: biochemical
# Format: biochemical
pIC50: −log10 of the molar value.
readout kind: pIC50

1: O=C(NO)c1ccc(NCc2cnc3ccccc3c2)cc1 [Compound 2f]
2: O=C(NO)c1ccc(N2CCN(Cc3c[nH]c4ccccc34)CC2)cc1 [Compound 2b]
3: O=C(NO)c1ccc(CNCc2c[nH]c3ccccc23)cc1 [Compound 2a]
Which order do the above compounds take when sorted by rising pIC50? Smallest first. # output: labels, in the requested order 3, 1, 2
(3: 6.46, 1: 6.68, 2: 7.13)
